- Tested on: G-clamp-N3 (biotin conjugate)
- method: pull-down binding Z-score (relative to library population); higher = stronger binding
- test.conditions: RNA library: Library-1 (pre-miRNA loops + repeats)
Recorded measurements of pull-down binding Z-score, one per entry
value.type: pull-down binding Z-score

INSERT INTO measurements (residues, value_type, result_number) VALUES
  ('CUUUCUGUUGUCUGAAAGAAAAGAAAG [hsa-mir-520c_520b_519c_519b]', 'pull-down binding Z-score', 0.44),
  ('GGCGGAGGCAGGCGUGACCGUUUGCC [hsa-mir-4632]', 'pull-down binding Z-score', 1.09),
  ('CCAUGUAAUCUUUGG [hsa-mir-1302-5]', 'pull-down binding Z-score', -0.454),
  ('GCUGCUGCCCCAGAGGCCCAGCAGGUGUCCAGAAC [hsa-mir-6750]', 'pull-down binding Z-score', -0.884),
  ('CAGCCCUGCACUGAAC [hsa-mir-614]', 'pull-down binding Z-score', -1.84),
  ('UUUGCAUCUGGACGACGAAU [hsa-mir-409]', 'pull-down binding Z-score', -0.465),
  ('CCCACUCCAAAGUUCACAGAAUGGGUGG [hsa-mir-541]', 'pull-down binding Z-score', 0.626),
  ('UGGAUCACGCCGACAACACUGGUCU [hsa-mir-4635]', 'pull-down binding Z-score', -0.474),
  ('AAGUCCGGCUCCAGAACCUGGACACCGCUCAG [hsa-mir-4638]', 'pull-down binding Z-score', -1.24),
  ('CACCUCCCGGCCCGGAGCUG [hsa-mir-4734]', 'pull-down binding Z-score', 0.0744),
  ('GCACUCUGUAGUUUGGGUACACAGUGC [hsa-mir-5011]', 'pull-down binding Z-score', 1.49),
  ('UUGACCAAUCAUCUUAUUGACUAGA [hsa-mir-6502]', 'pull-down binding Z-score', -1.52),
  ('UGCUCAGUGGAGUUAUUUUGAGCA [hsa-mir-4495]', 'pull-down binding Z-score', 1.2),
  ('GGAGAUUGGAGUGGCCAGUGUUCCUAAACAAUUC [hsa-mir-4263]', 'pull-down binding Z-score', -0.451),
  ('UCAGGAUCUACUCAUGUCGUCUUUGG [hsa-mir-573]', 'pull-down binding Z-score', -1.01),
  ('GACGUCCAAUCUCUUUGGGACGCC [hsa-mir-2682]', 'pull-down binding Z-score', 2.24),
  ('AGGCACAUAUGUGAACAUUGUACCA [hsa-mir-5707]', 'pull-down binding Z-score', -0.48),
  ('GAGUGUAAUUACGUACAUGCAGUAGCUC [hsa-mir-618]', 'pull-down binding Z-score', 0.413),
  ('GUCUGUUUUCUUCAUGGUUUUCUGAC [hsa-mir-6759]', 'pull-down binding Z-score', 0.125),
  ('AAGUUCCCUCUGGCUGGAAC [hsa-mir-1249]', 'pull-down binding Z-score', -0.433),
  ('UGGCCAUUUCCUACCA [hsa-mir-617]', 'pull-down binding Z-score', -1.33),
  ('AGAACUUUGGUUUU [hsa-mir-4434]', 'pull-down binding Z-score', 0.298),
  ('GUUAGACCUGGCCCUCUGUCUAAU [hsa-mir-429]', 'pull-down binding Z-score', -0.787),
  ('AUUCUGAUGAUCACCUAGCCAGAAU [hsa-mir-5583-2]', 'pull-down binding Z-score', -0.301);

// data source = the supplement of paper PMC11865577
